# Protocol text: small-molecule microarray binders of probe aShh, primary screen, biochemical, biotinylated probe, 635/667 nm fluorescence (AID 1114);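 further: probe is biotin-labelled aShh protein from a stem cell growth factor screen; measures binding of labelled protein to compounds printed on the slide; score merges feature fluorescence at 667 nm with signal-to-noise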
# Conditions: higher = more signal
Record form. Attribute: composite z-score. Fill in for each entry.

[Q] Item NC(=O)NCC#Cc1ccc2c(c1)[C@]1(C(=O)N2)[C@H](C(=O)N2CCCCCCC2)[C@H]2C(=O)O[C@H](c3ccccc3)[C@H](c3ccccc3)N2[C@@H]1c1ccc(O)cc1 has what recorded composite z-score?
[A] 1.54

[Q] CCOC(=O)C[C@H]1[C@H](OC(=O)Cc2ccc3c(c2)OCO3)[C@@H](NC(=O)c2ccccc2)c2cc(OCCCO)ccc2N1C(=O)Cc1ccc(OC)cc1 , same question.
[A] -0.0626

[Q] C=CC[C@]1(C(=O)NCCCOC)N=C(c2ccc(OCCCO)cc2)O[C@H]1c1ccccc1 , same question.
[A] -0.0626

[Q] CN1C(=O)C2C(C1=O)C1C=C(c3ccc(CO)cc3)C2C(c2cccs2)N1C (configuration not stated) , same question.
[A] -0.0553

[Q] CCCCN1CC=CC23O[C@@H]4C=CCOC(=O)[C@@H]4[C@H]2C(=O)N(CCO)[C@@H]3C1=O (some centres not stated) , same question.
[A] 0.0893

[Q] C[N+](C)(C)CCCCCCNC(=O)[C@H]1C[C@H]2C(=O)NCC(=O)N2[C@H]1c1cccc(OCCO)c1 , same question.
[A] -0.311

[Q] C#CCN([C@H](/C=C/C1CC1)[C@@H](O)Cc1ccccc1)[C@@H](Cc1ccccc1)C(=O)OC , same question.
[A] 0.0639

Values from PubChem BioAssay
